Where do these numbers come from? They come from PubChem BioAssay (NCATS).

- protocol-description: Quantitative High-Throughput drug screen in 47 multiple myeloma cell lines against the NCATS MIPE library collection: OCIMY5_PLB cell viability assay (AID 1918988); note: nearly all actives have a fitted effect of over 65% in size
- condition-info: OCI-MY5 myeloma viability, ATP luminescence, 48 h; series mostly up to 45.8 µM
Inconclusive results are not listed. Activity calls are given as the source filed them. Calls come from the whole dose curve; as a rule, active = well fitted cell-killing curve with a large enough effect; inconclusive = small, poorly fitted or top-dose-only effect, or effect the other way; inactive = no such curve, though single readings can be large or run the other way.
Log the outcome using a class from y for active, n for inactive

Solved cases below.
Exercise: Field: outcome | Entry: CN1c2cc(O)c(N=NC(N)=O)cc2CC1S(=O)(=O)O (stereo not given)
Key: n

Exercise: Queued: Cc1cc(CN2CCN(c3c(Br)cnc4nc(-c5ccc(N6CCN(C)CC6)cc5)[nH]c34)CC2)no1
Key: y

Exercise: Try COc1cc(=C2C=c3ccccc3=N2)[nH]c1=Cc1[nH]c(C)cc1C next.
Key: y

---
Exercise: # fetch the recorded call for CN(C)c1nc(Cc2ccc(NC(=O)c3ccc4ccccc4c3)cc2)nc(Cl)c1CC(=O)O here
Key: y

Exercise: Query Cc1ccc(CN2CCNCC2)cc1NC(=O)CNc1ccc(F)c(F)c1 next
Key: y

Exercise: Please do the same for COc1ccc(OC)c(-c2nnc3ccc(-c4ccc(OC)c(O[C@@H]5CCOC5)c4)nn23)c1 as well.
Key: y

Exercise: Can you check OCCCNc1cc(-c2ccnc(Nc3cccc(Cl)c3)n2)ccn1 next?
Key: y

Exercise: Entry CCCCCN(CCC12CC3CC(CC(C3)C1)C2)C(=O)NCCCc1ccncc1 please
Key: y

Exercise: Next record, please: OCc1ccc(-c2ccc(-c3ccc(CO)s3)o2)s1
Key: y

Exercise: Another compound to check: c1cc(-c2cnn3cc(-c4ccc(OCCN5CCCCC5)cc4)cnc23)ccn1
Key: y

---

- protocol-description: NS1 protein of Zika virus - qHTS assay to identify small molecule inhibitors in human HEK 293 cells (AID 1347053); note: nearly all actives have a fitted effect of over 55% in size
- condition-info: HEK293 ZIKV MR766 infection, NS1 TR-FRET, 24 h; series mostly up to 46.1 µM
Inconclusive results are not listed. The source made the active and inactive calls. The call rests on the fitted dose curve; in most records, active means well fitted inhibition curve with a large enough effect; inconclusive means small, poorly fitted or top-dose-only effect; inactive means no such curve, though single readings can be large or run the other way.
Choose one outcome from this list and give only that: class 1 = active, class 0 = inactive

Illustrative cases are given below, each with its answer.
Exercise: Please indicate how the test categorized CC1(C)O[C@@H]2C[C@@H]3[C@H]4C[C@@H](F)C5=CC(=O)C=C[C@]5(C)[C@@]4(F)[C@@H](O)C[C@]3(C)[C@]2(C(=O)CO)O1 .
Key: class 0

Exercise: How about Cc1nc2cnc3ccc(C#Cc4cccnc4)cc3c2n1-c1ccc(C(C)(C)C#N)cc1 ?
Key: class 1

Exercise: Here is the next compound: C[C@@H]1CN(CC(=O)Nc2ccc3c(c2)Cc2cccc(-c4cc(=O)cc(N5CCOCC5)o4)c2S3)C[C@H](C)O1
Key: class 1

Next, consider the following compound.
Exercise: Answer briefly: the call reported for Cc1ccc2nc(NC(=O)CSc3nc4c(c(=O)n3-c3ccccc3)SCC4)sc2c1 in this assay.
Key: class 0

---

- Tested on: OV90
- protocol-description: Primary qHTS to identify gynecologic anti-cancer compounds using libraries of approved drugs and bioactive compounds (AID 1345084); note: nearly all actives have a fitted effect of over 55% in size
- condition-info: Gynecologic cancer cell panel viability, ATPlite luminescence, 48 h; series mostly up to 57.5 µM
Inconclusive results are not listed. Active and inactive are the calls of the source. Calls follow the shape of the dose curve; as a rule, active = well fitted cell-killing curve with a large enough effect; inconclusive = small, poorly fitted or top-dose-only effect, or effect the other way; inactive = flat fitted curve, though single readings scatter.
Choose the fitting class; nothing outside active, inactive is accepted.

Sample answers from the record:
Exercise: Short answer needed: outcome of this test for COc1cccc(-c2ccc(NC(=O)C3=C(C(=O)O)CCC3)c(F)c2)c1 ?
Key: inactive

Exercise: And for NC(=O)c1cccc2cn(-c3ccc([C@@H]4CCCNC4)cc3)nc12 ?
Key: inactive

Exercise: Try O=C(Cc1ccc(-c2ccc(OCCN3CCOCC3)cc2)cn1)NCc1ccccc1 next.
Key: active

Exercise: Could you do the same for OCc1ccc(-c2ccc(-c3ccc(CO)s3)o2)s1 , please?
Key: active

Exercise: Now give it for O=C(O)CCCc1c[nH]c2ccccc12 too.
Key: inactive

Exercise: // query: Cn1c(=O)n(-c2ccc(C(C)(C)C#N)cc2)c2c3cc(-c4cnc5ccccc5c4)ccc3ncc21
Key: active

Exercise: Same question for C[C@]1(CO)CN(c2cc(C(=O)Nc3ccc4c(c3)-c3c(c(C(N)=O)nn3-c3ccc(F)cc3)CC4)c(Cl)cn2)C[C@@]1(C)CO please.
Key: inactive

Exercise: Then what about the compound COc1cc(C)c(Sc2cnc(NC(=O)c3ccc(CNC(C)C(C)C)cc3)s2)cc1C(=O)N1CCN(C(C)=O)CC1 (stereo not drawn) ?
Key: inactive

More entries:
Exercise: I'd appreciate the recorded outcome for COc1ccc(OC)c(-c2nnc3ccc(-c4ccc(OC)c(O[C@@H]5CCOC5)c4)nn23)c1 from this test.
Key: inactive

Exercise: What do you have for COC(=O)C1=C(C)NC(C)=C(C(=O)OCCN2CCN(C(c3ccccc3)c3ccccc3)CC2)C1c1cccc([N+](=O)[O-])c1 (stereo not drawn) ?
Key: inactive

Exercise: One more compound: CC(=O)Nc1sc2c(c1-c1nc3ccccc3s1)CNC2
Key: inactive

Exercise: Proceed to CC(C)CC(=O)Nc1n[nH]c2c1CN(C(=O)C1CCN(C)CC1)C2(C)C
Key: active

Exercise: And the next one, Cc1cc(CN2CCN(c3c(Br)cnc4nc(-c5ccc(N6CCN(C)CC6)cc5)[nH]c34)CC2)no1 ?
Key: inactive

Exercise: // next record CCNC(=O)Nc1ccc2ncc(Nc3ccc(C)cc3)nc2n1
Key: inactive

Exercise: Then what about the compound C=CC(=O)Nc1cccc(Oc2nc(Nc3ccc(N4CCN(C)CC4)cc3)ncc2Cl)c1 ?
Key: inactive

Exercise: What do you have for CNC(=O)c1c(F)cccc1Nc1nc(Nc2cc3c(cc2OC)CCN3C(=O)CN(C)C)nc2[nH]ccc12 ?
Key: inactive

Exercise: One more compound: Cn1c(CNc2ccc(C(=N)N)cc2)nc2cc(C(=O)N(CCC(=O)O)c3ccccn3)ccc21
Key: inactive

Exercise: Entry Nc1nccc(Oc2ccc(NC(=O)c3c[nH]cc(-c4ccc(F)cc4)c3=O)cc2F)c1Cl please
Key: inactive

Exercise: Now try Nc1nc(NCCNc2ncc(-n3ccnc3)c(-c3ccc(Cl)cc3Cl)n2)ccc1[N+](=O)[O-] .
Key: inactive

Exercise: Check COc1cccc(Nc2c(C(N)=O)cnc3c(C)cc(S(=O)(=O)c4cccc(C(=O)N(C)C)c4)cc23)c1 too.
Key: inactive

Exercise: Similarly, Cc1ccc2nc(NC(=O)CSc3nc4c(c(=O)n3-c3ccccc3)SCC4)sc2c1 ?
Key: inactive

Exercise: Next record, please: Cc1cc(C(=O)N2CCN(c3cccc(Cl)c3)CC2)n(-c2ccccc2)n1
Key: inactive

Exercise: Follow-up item: O=C(Nc1cc(C(F)(F)F)cc(C(F)(F)F)c1)c1cc(Cl)ccc1O
Key: active

---

- protocol-description: Quantitative High-Throughput drug screen in 47 multiple myeloma cell lines against the NCATS MIPE library collection: AMO1_DSMZ cell viability assay (AID 1918927; note: potency is the fitted concentration of half-maximal effect; nearly all actives have a fitted effect of over 30% in size)
- condition-info: AMO1 myeloma cells viability, CellTiter-Glo ATP luminescence, 48 h; series mostly up to 45.8 µM
Records with an inconclusive call do not appear. The source made the active and inactive calls. The call rests on the fitted dose curve; in most records, active means well fitted cell-killing curve with a large enough effect; inconclusive means small, poorly fitted or top-dose-only effect, or effect the other way; inactive means no such curve, though single readings can be large or run the other way.
Would you mind telling me the reported Potency of each entry?

Consider the following illustrative entries.
Exercise: Given the entry COc1cc(C(=O)N2CCC(N3CCN(C)CC3)CC2)ccc1Nc1ncc2c(n1)N(C)c1ccccc1C(=O)N2C , report its measured Potency.
Key: 2350 nM (active)

Exercise: How about Nc1ccccc1NC(=O)c1ccc(CNC(=O)OCc2cccnc2)cc1 ?
Key: 833 nM (active)

Exercise: And then Cc1cc(Nc2ncnc3ccc(-c4ccc(CNCCS(C)(=O)=O)o4)cc23)ccc1Oc1ccn2ncnc2c1 , what is it?
Key: 935 nM (active)

Exercise: Now give it for C=C1C(=CC=C2CCC[C@]3(C)[C@@H]([C@H](C)C=C[C@H](C)C(C)C)CC[C@@H]23)C[C@@H](O)C[C@@H]1O too.
Key: 235 nM (active)

We now examine a further molecule.
Exercise: Give the measured Potency of Nc1nc(Nc2ccc(S(N)(=O)=O)cc2)nn1C(=O)c1c(F)cccc1F .
Key: 2090 nM (active)

---

- protocol-description: Quantitative High-Throughput drug screen in 47 multiple myeloma cell lines against the NCATS MIPE library collection: MM1S_ATCC cell viability assay (AID 1918980); note: nearly all actives have a fitted effect of over 45% in size; note: potency is the fitted concentration of half-maximal effect
- condition-info: MM1S myeloma viability, CellTiter-Glo ATP luminescence, 48 h; series mostly up to 45.8 µM
Results filed as inconclusive are left out. Active and inactive are the calls of the source. Calls come from the whole dose curve; as a rule, active = well fitted cell-killing curve with a large enough effect; inconclusive = small, poorly fitted or top-dose-only effect, or effect the other way; inactive = no such curve, though single readings can be large or run the other way.
property-label: Potency

Worked examples, 5 compounds total:
Exercise: Entry c1cc(-c2cnn3cc(-c4ccc(OCCN5CCCCC5)cc4)cnc23)ccn1 : reported Potency = ?
Key: 16.6 µM (active)

Exercise: Lookup Cc1cc(C(=O)N2CCN(c3cccc(Cl)c3)CC2)n(-c2ccccc2)n1
Key: 16.6 µM (active)

Exercise: CCc1c2c(nc3ccc(O)cc13)-c1cc3c(c(=O)n1C2)COC(=O)[C@]3(O)CC ?
Key: 0.0118 µM (active)

Exercise: Also COc1cc(=C2C=c3ccccc3=N2)[nH]c1=Cc1[nH]c(C)cc1C , if possible.
Key: 4.18 µM (active)

Exercise: Entry to check: CCN(CC)CCCCNc1ncc2cc(-c3cc(OC)cc(OC)c3)c(NC(=O)NC(C)(C)C)nc2n1
Key: 20.9 µM (active)

Below is a list of compounds. For each, state its recorded Potency.
1. N#Cc1c(O)c2c(-c3ccc(-c4ccccc4O)cc3)csc2[nH]c1=O
2. Cc1ccc(NC(=O)C2(c3ccc4c(c3)OC(F)(F)O4)CC2)nc1-c1cccc(C(=O)O)c1

Key:
["16.6 µM (active)", "0.0526 µM (active)"]

# batch size: 3; output Potency per entry
1. CC=C1NC(=O)[C@H]2CSSCCC=C[C@H](CC(=O)N[C@H](C(C)C)C(=O)N2)OC(=O)[C@H](C(C)C)NC1=O
2. Cc1ccc(C(=O)Nc2cccc(C(F)(F)F)c2)cc1-c1ccc2nc(NCCN3CCOCC3)ncc2c1
3. Cc1cn(-c2cc(NC(=O)c3ccc(C)c(Nc4nccc(-c5cccnc5)n4)c3)cc(C(F)(F)F)c2)cn1

Key:
1: 0.0332 µM (active); 2: 16.6 µM (active); 3: inactive

State the recorded Potency for every item in the following list.
1. COc1cc2c(Oc3ccc(-c4cnc(Nc5ccc(F)cc5)n(C)c4=O)cc3F)ccnc2cc1OCCCN1CCOCC1
2. CCCn1c(=O)c2[nH]c(-c3cnn(Cc4cccc(C(F)(F)F)c4)c3)nc2n(CC)c1=O
3. Cn1c2cc(S(C)=O)sc2c2cnn(Cc3cccc(N)c3)c(=O)c21 (centres undefined)
4. Cn1cc(-c2ccncc2)c(-c2ccc(OCc3ccc4ccccc4n3)cc2)n1
5. Nc1ccn([C@@H]2O[C@H](CO)[C@H](O)C2(F)F)c(=O)n1
6. CCn1nnc2c(N3CCOCC3)nc(-c3ccc(NC(=O)Nc4ccc(C(=O)N5CCN(C)CC5)cc4)cc3)nc21
7. CC(C)c1nn(-c2c(Cl)cccc2Cl)c2nc(Cc3ccc(OCCO)cc3)[nH]c(=O)c12
8. Cc1cc(Nc2cc(NC(=O)c3c(Cl)cccc3Cl)ccn2)nc(N)n1

Key:
9.35 µM (active)
16.6 µM (active)
inactive
14.8 µM (active)
0.0187 µM (active)
0.0332 µM (active)
0.0418 µM (active)
0.209 µM (active)

Exercise: Need Potency, item Clc1ccc2ncc(-c3cccc(NC4CNC4)n3)n2c1
Key: 5.26 µM (active)
